pIC50: −log10 of the molar value.
Below are pIC50 values recorded for Acetylcholinesterase (Electrophorus electricus).
result.type: pIC50

>>> print(df.to_string())
                            chemical_string                     target_or_test_system  result_number
0  CCN(CCCCOc1cccc(-c2cc(=O)c3c(O)c(OC)c(OC)cc3o2)c1)Cc1ccccc1OC  Acetylcholinesterase (Electrophorus electricus)           5.10
1  COc1ccccc1CN(C)CCCCCCOc1cccc(-c2cc(=O)c3c(O)c(OC)c(OC)cc3o2)c1  Acetylcholinesterase (Electrophorus electricus)           5.24
2  COc1ccccc1CN(C)CCCCCCOc1ccc(-c2cc(=O)c3c(OC)c(OC)c(OC)cc3o2)cc1  Acetylcholinesterase (Electrophorus electricus)           5.65
3  CCN(CCCOc1cccc(-c2cc(=O)c3c(O)c(OC)c(OC)cc3o2)c1)Cc1ccccc1OC  Acetylcholinesterase (Electrophorus electricus)           5.35
4  COc1cc2oc(-c3cccc(OCCCCCCN4CCN(Cc5ccccc5)CC4)c3)cc(=O)c2c(OC)c1OC  Acetylcholinesterase (Electrophorus electricus)           4.67
5  CCN(CCCCCCOc1ccc(-c2cc(=O)c3c(OC)c(OC)c(OC)cc3o2)cc1)Cc1ccccc1  Acetylcholinesterase (Electrophorus electricus)           5.55
6  COc1cc2oc(-c3ccc(OCCCCN4CCN(C)CC4)cc3)cc(=O)c2c(OC)c1OC  Acetylcholinesterase (Electrophorus electricus)           5.28
7  COc1cc2oc(-c3cccc(OCCCCN4CCN(C)CC4)c3)cc(=O)c2c(OC)c1OC  Acetylcholinesterase (Electrophorus electricus)           5.94
8  COc1ccccc1CN(C)CCCOc1cccc(-c2cc(=O)c3c(OC)c(OC)c(OC)cc3o2)c1  Acetylcholinesterase (Electrophorus electricus)           5.80

* * *

Each record here notes measured Ratio IC50.
Organism: Rattus norvegicus
measurement.description: Selectivity index, ratio of IC50 for rat serum BuChE to IC50 for rat cortex AChE
result.type: Ratio IC50

>>> df
                            chemical_string  result_type  relation_sign  result_number
0  COc1cc2oc(-c3cccc(OCCCCN(C)Cc4ccccc4)c3)cc(=O)c2c(OC)c1OC   Ratio IC50              =             20
1  COc1ccccc1CN(C)CCCOc1cccc(-c2cc(=O)c3c(OC)c(OC)c(OC)cc3o2)c1   Ratio IC50              =            198
2  COc1ccccc1CN(C)CCCCCCOc1ccc(-c2cc(=O)c3c(OC)c(OC)c(OC)cc3o2)cc1   Ratio IC50              =            214
3  COc1cc2oc(-c3ccc(OCCCCCCN4CCN(Cc5ccccc5)CC4)cc3)cc(=O)c2c(OC)c1OC   Ratio IC50              >             62
4  COc1cc2oc(-c3ccc(OCCCN4CCN(Cc5ccccc5)CC4)cc3)cc(=O)c2c(OC)c1OC   Ratio IC50              >            278

* * *

target.or.test.system: Acetylcholinesterase (Rattus norvegicus, UniProt P37136)
Sequence (P37136 whole entry): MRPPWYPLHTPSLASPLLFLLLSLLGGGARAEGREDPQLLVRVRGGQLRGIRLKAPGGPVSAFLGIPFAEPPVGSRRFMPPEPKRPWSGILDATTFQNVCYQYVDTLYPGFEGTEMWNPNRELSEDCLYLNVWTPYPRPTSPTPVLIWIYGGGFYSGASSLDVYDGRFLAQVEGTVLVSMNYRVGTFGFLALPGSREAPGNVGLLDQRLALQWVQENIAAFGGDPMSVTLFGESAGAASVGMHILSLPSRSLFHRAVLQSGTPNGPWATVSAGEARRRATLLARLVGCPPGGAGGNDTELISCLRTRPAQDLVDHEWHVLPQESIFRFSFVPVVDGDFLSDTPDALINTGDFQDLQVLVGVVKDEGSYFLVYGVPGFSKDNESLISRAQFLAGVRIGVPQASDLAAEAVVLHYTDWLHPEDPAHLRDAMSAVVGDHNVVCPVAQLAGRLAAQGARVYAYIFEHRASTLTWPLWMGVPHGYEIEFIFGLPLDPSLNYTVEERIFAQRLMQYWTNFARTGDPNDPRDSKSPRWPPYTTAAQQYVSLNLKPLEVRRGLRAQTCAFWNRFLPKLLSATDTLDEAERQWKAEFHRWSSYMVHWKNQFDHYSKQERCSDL
Please use MET for IC50 under 2 µM and NOT MET for everything else, ties included.

>>> df
                                    molecule  classification
 0  COc1cc2oc(-c3cccc(OCCN(C)Cc4ccccc4)c3)cc(=O)c2c(OC)c1OC         NOT MET
 1  CCN(CCCCOc1cccc(-c2cc(=O)c3c(OC)c(OC)c(OC)cc3o2)c1)Cc1ccccc1OC             MET
 2  COc1cc2oc(-c3cccc(OCCCN4CCN(C)CC4)c3)cc(=O)c2c(OC)c1OC         NOT MET
 3  COc1ccccc1CN(C)CCCOc1cccc(-c2cc(=O)c3c(O)c(OC)c(OC)cc3o2)c1         NOT MET
 4  COc1cc2oc(-c3ccc(OCCCCN(C)Cc4ccccc4)cc3)cc(=O)c2c(OC)c1OC             MET
 5  COc1ccccc1CN(C)CCCCOc1ccc(-c2cc(=O)c3c(OC)c(OC)c(OC)cc3o2)cc1             MET
 6  CCN(CCCCCCOc1ccc(-c2cc(=O)c3c(OC)c(OC)c(OC)cc3o2)cc1)Cc1ccccc1OC             MET
 7  COc1ccccc1CN(C)CCCOc1cccc(-c2cc(=O)c3c(OC)c(OC)c(OC)cc3o2)c1             MET
 8  CCN(CCCCOc1cccc(-c2cc(=O)c3c(OC)c(OC)c(OC)cc3o2)c1)Cc1ccccc1         NOT MET
 9  COc1ccccc1CN(C)CCCCCCOc1ccc(-c2cc(=O)c3c(O)c(OC)c(OC)cc3o2)cc1         NOT MET
10  CCN(CCCCOc1cccc(-c2cc(=O)c3c(O)c(OC)c(OC)cc3o2)c1)Cc1ccccc1OC         NOT MET
11  COc1cc2oc(-c3ccc(OCCCN(C)Cc4ccccc4)cc3)cc(=O)c2c(OC)c1OC         NOT MET
12  O=c1cc(-c2ccc(O)cc2)oc2cc(O)c(O)c(O)c12 [SCUTELLAREIN]         NOT MET
13  COc1cc2oc(-c3cccc(OCCCCN4CCN(Cc5ccccc5)CC4)c3)cc(=O)c2c(OC)c1OC         NOT MET
14  CCN(CCCCOc1ccc(-c2cc(=O)c3c(O)c(OC)c(OC)cc3o2)cc1)Cc1ccccc1OC             MET
15  COc1cc2oc(-c3cccc(OCCCCCCN4CCN(Cc5ccccc5)CC4)c3)cc(=O)c2c(OC)c1OC         NOT MET
16  COc1ccccc1CN(C)CCCCCCOc1cccc(-c2cc(=O)c3c(OC)c(OC)c(OC)cc3o2)c1             MET
